System: OVCAR-4 ovarian
Protocol summary: NCI tumour cell line growth inhibition, 48 h
Listed compounds paired with reported TGI

Sample records with TGI:
CC(C)(C)[Si](C)(C)OC1[C@@H](O[Si](C)(C)C(C)(C)C)[C@@H](CNC(=O)NC(=O)NC(=O)CCl)O[C@H]1n1cnc2c(NC(=O)Nc3ccccc3)ncnc21 (stereo partly drawn)	10.5 µM
O=C(CC(Cc1ccccc1)c1ccc(Oc2ccccc2)cc1)Nc1cccc(Cl)c1 (stereo not drawn)	> 100 µM
Cc1ccc(NC(=O)CC(=O)N2N=C(N3CCCCC3)CC2c2ccccc2)cc1 (stereo not drawn)	> 100 µM
[N-]=[N+]=NCCCn1c2c(c3ccc([N+](=O)[O-])cc3c1=O)C(=O)c1cc(I)ccc1-2	> 100 µM
N#CC(NNC(=O)c1c(Cl)c(Cl)c(Cl)c(Cl)c1-c1nc2ccc(C(=O)c3ccccc3)cc2[nH]1)c1ccccc1 (stereo not drawn)	> 100 µM
O=C(O)CCC(=O)Oc1ccc(O)c2c1CCCC2=O	> 100 µM

# input Which measured TGI value corresponds to Clc1ccc(C2CC(c3cccc(Nc4ccncc4)c3)=NN2c2ccccc2)cc1 (stereo not drawn) ?
# output 3.17 µM

# input Next record, please: `c1ccc(COCC[P+](c2ccccc2)(c2ccccc2)c2ccccc2)cc1`
# output 12.2 µM

====

Test system: CAKI-1 renal
Protocol summary: NCI tumour cell line growth inhibition, 48 h
Listed molecules paired with reported TGI

CC(C)(Oc1ccc(C(=O)c2ccc(Cl)cc2)cc1Cl)C(=O)N1CCN(CCO)CC1	> 10 µM

# input Which measured TGI value corresponds to `CN1C(=S)CSc2ccccc21` ?
# output > 100 µM

====

Listed compounds paired with reported TGI
Test system: HT29 colon
Protocol summary: NCI tumour cell line growth inhibition, 48 h

Sample records with TGI:
CC1=NN(c2cccc(Cl)c2)C2(C1=Cc1cccs1)C(Cl)C(=O)N2c1nc2ccccc2s1 (stereo not drawn)	46 µM
O=C(CCc1ccc(O)c(O)c1)NCCc1ccccc1	> 72.2 µM

# input Which measured TGI value corresponds to `O=C1C[C@@H]2[C@@H](CCC23CCCC3)N1` ?
# output > 100 µM

====

Listed compounds paired with reported TGI
Tested on: SF-539 CNS
Protocol summary: NCI tumour cell line growth inhibition, 48 h

Sample records with TGI:
O=C(CCC(=O)Nc1ccc(Cl)cc1)CC(=O)c1ccc2ccccc2c1	> 100 µM
CC(C)(C)CNCCCNc1ccc(Cl)cc1	> 100 µM
CC1(c2nc3ccccc3[nH]2)CCC(C#N)C(C)(C)O1 (stereo unspecified)	> 100 µM

# input Which measured TGI value corresponds to C=CCOC1CC(n2cnc3c(N)ncnc32)OC1CO (stereo unspecified) ?
# output > 100 µM

# input Next record, please: CCOC(=O)C1=C(C)NC(C)=C(C(=O)OCCNC(=O)c2ccc(N=[N+]=[N-])cc2)C1c1ccccc1C(F)(F)F (stereo unspecified)
# output > 31.6 µM

# input Next record, please: CO[C@H](C(=O)O[C@H]1C(=O)N2CC[C@@H]3CCC[C@H]1C32C)c1ccccc1 (stereo partly specified)
# output > 100 µM

====

System: OVCAR-5 ovarian
Protocol summary: NCI tumour cell line growth inhibition, 48 h; in the data active = GI50 below about 0.43 µM; inactive = the rest
Permitted responses: active, inactive

Completed entries (count: 5):
C[C@@H]1CC[C@H]2[C@@H](C)C(OC/C=C/COC3O[C@@H]4O[C@@]5(C)CC[C@H]6[C@H](C)CC[C@@H]([C@H]3C)[C@@]46OO5)O[C@@H]3O[C@@]4(C)CC[C@@H]1[C@]32OO4 (stereo partly specified)	active
O=C1Nc2ccc(O)cc2/C1=C\c1ccncc1	inactive
Cc1cc2c(C(=O)NCC#N)cccc2n1-c1nc2c(c(NCc3ccccc3)n1)CCCC2	active
O=C(Nc1ccc(Oc2ccc(NC(=O)Nc3ccccc3Cl)cc2)cc1)Nc1ccccc1Cl	inactive
COc1ccc(CN2C(=O)/C(=C\C(=O)c3ccc(OCCN4CCCC4)cc3)c3ccccc32)cc1	inactive

# input # fetch the recorded call for `Cc1cc(I)cc(CNCCN2CCOCC2)c1O` here
# output inactive

# input Next record, please: `O=C(/C=C/c1ccco1)Nc1ncc(Cc2cccc(C(F)(F)F)c2)s1`
# output active

# input Next record, please: `COc1cc(-c2cc(-c3cccs3)c(C#N)c(N3CCOCC3)n2)cc(OC)c1OC`
# output inactive

# input Next record, please: CCSc1nc(NC(C)c2ccccc2)c2cnn(CO)c2n1 (stereo unspecified)
# output inactive

# input Next record, please: `COc1ccc(/C(=C/c2ccc3ccccc3c2)c2nn[nH]n2)cc1OC`
# output inactive

# input Next record, please: COc1ccc(C2=NN(C=O)C(c3ccc(OS(=O)(=O)c4ccc(C)cc4)c(OC)c3)C2)cc1 (stereo unspecified)
# output inactive

====

Listed compounds paired with reported TGI
Test system: UO-31 renal
Protocol summary: NCI tumour cell line growth inhibition, 48 h

O=C(NCCCl)NCCN1c2nc3ccccc3cc2Sc2cc3ccccc3nc21	> 52.1 µM
O=C(CCC(=O)Nc1ccc(Cl)cc1)CC(=O)c1ccc2ccccc2c1	> 100 µM
CC(=O)N(C)c1cc(NCc2ccccc2)ccc1OCc1ccccc1	28 µM

# input Which measured TGI value corresponds to `COc1cc(/C=N/N=C(\N)NO)ccc1O` ?
# output > 100 µM

# input Next record, please: N#CC(C#N)=Cc1ccc(C(O)P(=O)(O)O)cc1 (stereo unspecified)
# output > 100 µM

# input Next record, please: Cc1cc2nc3c(=O)[nH]c(=O)nc-3n(CC(O)C(O)C(O)CO)c2cc1N (stereo unspecified)
# output > 100 µM

# input Next record, please: `COc1ccc(C[n+]2cccc(O)c2)cc1`
# output > 100 µM

# input Next record, please: `O=C(CSc1nnc(Cc2ccccc2)o1)Nc1ccc(Cl)cc1[N+](=O)[O-]`
# output 49.4 µM

# input Next record, please: `NS(=O)(=O)c1ccc(N=Nc2c(O)[nH]c3ccc(C(=O)NCCc4cnc[nH]4)cc23)cc1`
# output > 25 µM

# input Next record, please: O=C(O)C1CC(C2CCCCN2)CN2CCCCC12 (stereo unspecified)
# output > 100 µM

# input Next record, please: `Clc1ccc(OCc2nnc3sc(SSc4nn5c(COc6ccc(Cl)cc6)nnc5s4)nn23)cc1`
# output > 100 µM

====

Tested on: SN12C renal
Protocol summary: NCI tumour cell line growth inhibition, 48 h; in the data active = GI50 below about 0.43 µM; inactive = the rest
Permitted responses: active, inactive

Completed entries (count: 3):
CCCCCCCCCCCCNC(=O)N[C@H](C(=O)N[C@H]1/C=C/CCNC(=O)/C=C/[C@H](C)NC1=O)C(C)C	active
O=C1Nc2ccc(O)cc2/C1=C\c1ccncc1	inactive
O=C(NCCCl)NCCN1c2nc3ccccc3cc2Sc2cc3ccccc3nc21	inactive

# input # fetch the recorded call for `CS(=O)(=O)O[C@H]1C(=O)N(c2cc3c4ccccc4ccc3c3ccccc23)[C@@H]1c1ccccn1` here
# output inactive

# input Next record, please: `CC[O-].CC[O-].COc1ccc(C(=O)[CH-]C(C)=O)cc1OC.COc1ccc(C(=O)[CH-]C(C)=O)cc1OC.[Ti+4]`
# output inactive

# input Next record, please: `O=C(/C=C\c1cc(Br)ccc1O)/C=C/c1cc(Br)ccc1O`
# output inactive

# input Next record, please: `Cc1cc2c(C(=O)NCC#N)cccc2n1-c1nc2c(c(NCc3ccccc3)n1)CCCC2`
# output active

# input Next record, please: `C[C@]12CCCN1CC1=NNC(=O)c3cc(F)cc4[nH]c2c1c34`
# output inactive

# input Next record, please: Nc1nc(=S)c2ncn(C3OC(CO)C(O)C3O)c2[nH]1 (stereo unspecified)
# output inactive

====

System: A498 renal
Protocol summary: NCI tumour cell line growth inhibition, 48 h
Listed compounds paired with reported TGI

Nc1c(C(=O)c2ccc(C#CCN3CCOCC3)cc2)cnn1-c1ccc(F)cc1	> 25 µM

# input Which measured TGI value corresponds to `COc1ccc(/C=C2\C[C@H]3[C@@H]4CC=C5C[C@@H](OC(C)=O)CC[C@]5(C)[C@H]4CC[C@]3(C)C2=O)cc1OC` ?
# output > 100 µM

# input Next record, please: `CC(C(=O)NCCNC(=O)CCCC(=O)N(C)O)C(=O)NCCNC(=O)CCCC(=O)N(C)O`
# output > 100 µM

# input Next record, please: N#CC(C(=O)CCC(=O)Nc1ccc(Cl)cc1)c1ccc(Cl)cc1 (stereo not drawn)
# output > 100 µM

# input Next record, please: `CCN(CC)C(=S)/N=C(\SC(=S)N(CC)CC)c1ccccc1`
# output > 100 µM

# input Next record, please: `O=C(CCC(=O)Nc1ccc(Cl)cc1)CC(=O)c1ccc2ccccc2c1`
# output > 100 µM

# input Next record, please: `Clc1ccc(-c2nc3c(-c4ccccc4)nc(-c4ccccc4)cn3c2-c2ccc(Cl)cc2)cc1`
# output > 100 µM

# input Next record, please: Cc1cc(O)c2c(c1)C(C1OC(CO)C(O)C(O)C1O)c1cc(O)cc(O)c1C2=O (stereo not drawn)
# output > 100 µM

# input Next record, please: CC1NC(C(=O)O)Cc2cc(O)c(O)cc21 (stereo not drawn)
# output > 100 µM

# input Next record, please: C[C@@H]1CC[C@H]2[C@@H](C)C(OC/C=C/COC3O[C@@H]4O[C@@]5(C)CC[C@H]6[C@H](C)CC[C@@H]([C@H]3C)[C@@]46OO5)O[C@@H]3O[C@@]4(C)CC[C@@H]1[C@]32OO4 (stereo partly drawn)
# output > 100 µM

# input Next record, please: `COc1cc(-c2cc(-c3cccs3)c(C#N)c(N3CCOCC3)n2)cc(OC)c1OC`
# output > 43.1 µM

# input Next record, please: `CCOC(CN(C)C(=O)Nc1ccc(Cl)c(Cl)c1)OCC`
# output > 10 µM

# input Next record, please: CC(=O)c1cc(CC2Cc3cc4c(cc3C2=O)CCC4)cc2c1CCC2 (stereo not drawn)
# output > 100 µM

# input Next record, please: `CN1CCN(Cc2ccc(NC(=O)c3cncc(C#Cc4c(N)ncc5c(F)cccc45)c3)cc2C(F)(F)F)CC1`
# output 1.55 µM

# input Next record, please: `Cc1cc(I)cc(CNCCN2CCOCC2)c1O`
# output > 100 µM

# input Next record, please: N#CCCN(C1=NN(C(=O)CC(=O)Nc2ccc(Cl)cc2)C(c2ccccc2)C1)c1ccc(Cl)cc1 (stereo not drawn)
# output > 100 µM

# input Next record, please: `COc1ccc2nc3c(C)cc4ccccc4n3c2c1`
# output 65.4 µM

# input Next record, please: `CC(C)C(=O)Nc1ccc(-c2nc(-c3cccc(OCCN4CCOCC4)c3)c(-c3ccnc(Br)c3)[nH]2)cc1`
# output 4.74 µM

# input Next record, please: `COC1=CC(=O)c2c(c(COC(C)=O)cn2C)C1=O`
# output 0.586 µM

# input Next record, please: `COC(=O)CNC(=O)CNC(=O)CSc1nnc(COc2ccc(Cl)cc2)n1-c1ccccc1`
# output > 100 µM

# input Next record, please: `O=C1CNc2cc(N3CCOCC3)ccc2N1`
# output > 100 µM

# input Next record, please: `COc1ccc(C(OC(=O)[C@H](O[Si](C)(C)C(C)(C)C)[C@@H](NC(=O)c2ccccc2)c2ccccc2)c2ccc(OC)cc2)cc1`
# output > 100 µM

# input Next record, please: `O=S(=O)(Nc1nccs1)c1ccc([As](=O)(O)O)cc1`
# output > 100 µM
